Measured self-cleavage kobs at 160 uM GlcN6P, listed per entry for reference.
B1: glmS ribozyme (parent)
chain: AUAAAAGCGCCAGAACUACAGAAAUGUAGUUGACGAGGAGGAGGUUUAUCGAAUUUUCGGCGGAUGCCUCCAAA

Variants of: B1
Test: self-cleavage kobs at 160 uM GlcN6P; higher = faster cleavage; RNA array
Conditions: with glucosamine-6-phosphate
Variants at the floor of the assay were thinned out.
Reported metric: self-cleavage kobs at 160 uM GlcN6P

> print(dat)
         variant.label  observed.value
1            A42C G63A     < 1e-05 s⁻¹
2            G40U G62C     < 1e-05 s⁻¹
3  A12G A15U A53C C67A     < 1e-05 s⁻¹
